# System: CAKI-1 renal
# TEST DESCRIPTION: NCI tumour cell line growth inhibition, 48 h
EXPERIMENTAL ENDPOINT: GI50

Worked cases, GI50 given:
O=C(O)C(O)C(O)C1[O][Sb][O]C1CO (stereo not drawn)
> 100 µM
CCNC1=CC(=O)c2ncccc2C1=O
7.5 µM

Summary for this compound, O=C(N/N=C\c1cc(Cl)ccc1O)N/N=C/c1cc(Cl)ccc1O : GI50 is 3.36 µM

---

# System: SW-620 colon
# TEST DESCRIPTION: NCI tumour cell line growth inhibition, 48 h
EXPERIMENTAL ENDPOINT: TGI

Some solved entries appear below for comparison.
COc1cc(C(=O)c2c(-c3ccccc3)oc3ccccc23)cc(OC)c1O
26.9 µM
Cn1cc(/C=C2\C(=O)Nc3cccnc32)c2ccccc21
> 25 µM
CC[N+]1(C)CCC(O)(/C=C/c2ccc(Cl)c(Cl)c2)C(C(=O)/C=C/c2ccc(Cl)c(Cl)c2)C1 (stereo not given)
4.47 µM
ClCc1ccc(Cn2cnc3ncnc(Cl)c32)cc1
7.18 µM
O=c1c2c(=NCCCN3CCCC3)cc3c(=O)n(CCCN4CCCC4)c(=O)c4c(NCCCN5CCCC5)cc(c(O)n1CCCN1CCCC1)c2c4-3
14.5 µM

Consider the following items and state reported TGI for each.
1. CC(Cl)CC(=O)Nc1ccc2c(c1)oc(=O)c1cc(NC(=O)CC(C)Cl)ccc12 (stereo not given)
2. O=C(NNc1ccc([N+](=O)[O-])cc1)C1OC(CO)C(O)C1O (stereo not given)
3. O=C(O)c1cc2c(cc1CC(Cc1ccccc1)C(=O)O)CCC2 (stereo not given)
4. O=[N+]([O-])C(=C(c1ccccc1)c1ccccc1)[N+](=O)[O-]
5. COc1cc(C(N)=O)c(OC)c(OC)c1OC
6. CCCCC[C@@H]1OC(=O)[C@@]2(CC3c4ccccc4C2c2ccccc23)[C@H]1C(=O)OC
7. CCOC(=O)Cn1c(C)nc2nn(Cc3ccccc3)cc2c1=O
8. C1CN(C23OC4(N5CCOCC5)C5C6CC(C7C6C4C72)C53)CCO1 (stereo not given)

Ans.
["> 100 µM", "71.3 µM", "> 100 µM", "25.4 µM", "> 100 µM", "> 100 µM", "> 100 µM", "> 100 µM"]

I would be grateful if you could provide TGI for each of the following entries.
1. NC(=O)c1ccc(NC(=O)c2oc3ccccc3c2-c2cnn(-c3ccccc3)c2)cc1
2. O=C(n1c(=O)n(-c2ccc([N+](=O)[O-])cc2)c(=O)n1C(=O)C(Cl)(Cl)Cl)C(Cl)(Cl)Cl
3. CC(=O)OCC1OC(O[C@@H]2C[C@H]3C(C)(C)[C@H](OC(C)=O)CC[C@]3(C)[C@H]3CC[C@@H]4[C@]5(CC[C@@]4(C)[C@@]32C)O[C@@H]([C@H](O)C(C)(C)O)C[C@@H]5C)C(O)C(O)C1O (stereo not given in full)
4. COCCOC(=O)CCn1cc(F)c(=O)[nH]c1=O
5. C#Cc1ccccc1C(=O)OC

Ans.
1: > 100 µM; 2: > 100 µM; 3: 22.9 µM; 4: > 150 µg/mL; 5: > 100 µM

Below are some molecules; for each one, tell me its TGI.
1. CC(=O)Nc1[nH]c(=O)[nH]c(=O)c1N(C(C)=O)C(C)=O
2. CN(c1ccccc1)c1c(-c2ccccc2)c(=O)oc2c1ccc1occc12

Ans.
1. > 100 µM
2. > 100 µM
